# Measured Target: BACE1 (Homo sapiens)
pIC50: −log10 of the molar value.
Threshold check on pIC50: at or above 9 gives satisfied, strictly below gives not satisfied.

Worked examples follow.
- Compound: "NC1=NC2(c3cc(Br)ccc3Oc3cnc(Cl)cc32)c2ccccc21 (racemic) [Example 10c]"
  Category: "not satisfied"
- Compound: "NC1=N[C@@]2(c3cc(-c4cccnc4F)ccc3Oc3c2cc(Cl)nc3F)c2cccnc21 [Example 17d-1]"
  Category: "not satisfied"

Prompt line: Please tell me: is the compound NC1=N[C@@]2(c3cc(-c4cccnc4F)ccc3Oc3c2cc(Cl)nc3F)c2cnccc21 [Example 14d-1] at or over 9 in terms of pIC50?
Response line: not satisfied

Prompt line: Please tell me: is the compound NC1=N[C@]2(c3cc(-c4cccnc4F)ccc3Oc3c2cc(Cl)nc3F)c2cnccc21 [Example 14d-2] at or over 9 in terms of pIC50?
Response line: not satisfied

Prompt line: Please tell me: is the compound NC1=N[C@]2(c3cc(-c4cccnc4F)ccc3Oc3c2cc(C2=CCCOC2)nc3F)c2ccccc21 (single isomer, unassigned) [Example 7-B] at or over 9 in terms of pIC50?
Response line: satisfied

====

For reference, pIC50 measured on BACE1 (Homo sapiens):
Note on pIC50: it is the negative log10 of concentration, concentration in mol/L.

Here are 5 compounds together with their reported answers.
- Compound: "NC1=NC2(c3cc(-c4cccnc4F)ccc3Oc3cnc(-c4ccnc(F)c4)cc32)c2ncccc2O1 (stereo not shown)"
  Measured Target: "BACE1 (Homo sapiens)"
  pIC50: 8.00
- Compound: "NC1=N[C@]2(c3cc(Br)ccc3Oc3c2cc(Cl)nc3F)c2cccnc21 (single isomer, unassigned) [Example 17c-2]"
  Measured Target: "BACE1 (Homo sapiens)"
  pIC50: 5.46
- Compound: "NC1=N[C@]2(c3cc(-c4cccnc4F)ccc3Oc3c2cc(N2CCOCC2)nc3F)c2cccnc21"
  Measured Target: "BACE1 (Homo sapiens)"
  pIC50: 9.00
- Compound: "NC1=N[C@]2(c3cc(-c4cccnc4F)ccc3Oc3c2cc(Cl)nc3F)c2cccnc21 [Example 17d-2]"
  Measured Target: "BACE1 (Homo sapiens)"
  pIC50: 7.80
- Compound: "NC1=N[C@]2(c3cc(Br)ccc3Oc3c2cc(Cl)nc3F)c2cnccc21 (single isomer, unassigned) [Example 14c-2]"
  Measured Target: "BACE1 (Homo sapiens)"
  pIC50: 5.46

Please examine the following record next.
Looking up NC1=N[C@@]2(c3cc(-c4cccnc4F)ccc3Oc3c2cc(C2=CCCOC2)nc3F)c2ccccc21 (single isomer, unassigned) , I found its pIC50 recorded as 7.11

====

# Measured Target: BACE1 (Homo sapiens, UniProt P56817)
# Sequence (P56817 46-501): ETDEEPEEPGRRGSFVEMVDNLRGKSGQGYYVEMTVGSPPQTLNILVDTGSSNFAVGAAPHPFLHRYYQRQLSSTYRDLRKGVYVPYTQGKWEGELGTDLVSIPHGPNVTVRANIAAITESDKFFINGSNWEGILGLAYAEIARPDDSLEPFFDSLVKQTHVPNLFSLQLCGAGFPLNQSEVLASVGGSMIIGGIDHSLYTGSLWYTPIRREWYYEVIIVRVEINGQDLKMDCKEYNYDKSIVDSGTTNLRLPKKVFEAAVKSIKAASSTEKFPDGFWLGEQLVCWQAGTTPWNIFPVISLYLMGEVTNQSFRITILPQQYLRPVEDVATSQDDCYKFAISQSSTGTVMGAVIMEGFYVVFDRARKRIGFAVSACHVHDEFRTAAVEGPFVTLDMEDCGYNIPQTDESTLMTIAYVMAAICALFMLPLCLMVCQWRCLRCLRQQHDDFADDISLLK
# Assay Explanation: In vitro enzymatic BACE FRET assay
# Format: biochemical
# Description: In Vitro Enzymatic BACE FRET (fluorescence resonance energy transfer) Assay (Enzyme Assay data in the Example Table I) The assay buffer used in this screen is 0.05 M acetate, pH 4.2, 10% DMSO final, 100 uM genapol (which is a nonionic detergent, below its Critical Micelle Concentration). […] The FRET assay is terminated with by addition of Tris buffer, which raises the pH to neutrality, and the fluorescence is determined. […]
Measurement Label: IC50 (nM)
Could you give me the number in nM? Just the number is fine.

Here are 5 compounds together with their reported answers.
- Compound: "NC1=NC2(c3cc(-c4cccnc4F)ccc3Oc3c2cc(Cl)nc3F)c2cccnc21 (centres unmarked) [Example 17d, 2,2,2-trifluoroacetate]"
  Meas Value: 88
- Compound: "NC1=N[C@]2(c3cc(-c4cccnc4F)ccc3Oc3c2cc(-c2ccnc(F)c2)nc3F)c2cnccc21 (single isomer, unassigned)"
  Meas Value: 0.4
- Compound: "CC(C)(C)C#Cc1cc2c(cn1)Oc1ccc(-c3cccnc3F)cc1C21N=C(N)c2ccccc21 (racemic)"
  Meas Value: 6
- Compound: "NC1=NC2(c3cc(-c4cccnc4F)ccc3Oc3cnc(Cl)cc32)c2ccccc21 (racemic) [Example 10d]"
  Meas Value: 36
- Compound: "NC1=N[C@]2(c3cc(-c4cccnc4F)ccc3Oc3c2cc(-c2ccnc(F)c2)nc3F)c2cccnc21 [Example 17e]"
  Meas Value: 0.7

Looking up NC1=NC2(c3cc(Br)ccc3Oc3c2cc(Cl)nc3F)c2cnccc21 (centres unmarked) [Example 14c] , I found its IC50 recorded as 4580

Looking up NC1=N[C@@]2(c3cc(-c4cccnc4F)ccc3Oc3c2cc(-c2ccnc(F)c2)nc3F)c2ccccc21 (single isomer, unassigned) , I found its IC50 recorded as 18.2

Looking up NC1=NC2(c3ccccc3O1)c1cc(-c3cccnc3)ccc1Oc1cnc(-c3ccnc(F)c3)cc12 (centres unmarked) , I found its IC50 recorded as 2.9

Looking up NC1=NC2(c3cc(-c4cccnc4F)ccc3Oc3c2cc(Cl)nc3F)c2cnccc21 (centres unmarked) [Example 14d] , I found its IC50 recorded as 3.7

Looking up NC1=NC2(c3cc(-c4cccnc4F)ccc3Oc3c2cc(N2CCC(F)(F)C2)nc3F)c2ccccc21 (racemic) , I found its IC50 recorded as 5.3

Looking up NC1=NC2(c3cc(-c4cccnc4F)ccc3Oc3c2cc(-c2ccnc(F)c2)nc3F)c2ncccc21 (racemic) , I found its IC50 recorded as 1
